src = patent US9371374

Target: T1, HCV Core1-169 (HCV-1, UniProt P26664 1-169)
T1 construct: also called Solid Phase HCV Core
T1 sequence: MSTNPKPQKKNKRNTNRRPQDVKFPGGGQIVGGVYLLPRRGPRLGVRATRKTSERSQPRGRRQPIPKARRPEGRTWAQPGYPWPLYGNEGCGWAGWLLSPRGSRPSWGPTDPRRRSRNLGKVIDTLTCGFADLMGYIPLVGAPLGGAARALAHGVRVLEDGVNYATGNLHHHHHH
Test: sandwich EIA, capture 208B-612-226
Rule: OD492 below 0.3 OD gives MET, anything at or above gives NOT MET.

Regarding HCV 208A-293 (antibody, V domains shown) VH: EVQLQQSGPELVKPGASVKISCKASGFTFTEYAMHWMKQSHGKSLEWIGGINPTNGDAIYNQKFKDKAKLTVDRSSSTAYMELRSLTSDDSALFYCARRELDYFPSWGQGTTLTVSS VL: DIVLTQSPASLIVSLGQRATISCRASQSVSTSRFSYVHWIQQKPGQPPKLLIKYASNLESGVPVRFSGSGSGTDFILNIHPVEEEDTATYFCQHSWEFPFTFGSGTKLEIKR , kindly confirm whether its OD492 is beneath 0.3 OD.
NOT MET

Regarding HCV 208A-207 (antibody, V domains shown) VH: QGQLQQPGAEFVKPGASLKLSCRASGYTFTSYWIHWVKQRPGQGLEWIGEIDPSDSYINQNQKFRGKATLTVDKSSSTAYMELSGLTSEDSAVYYCARHYYGVLDSWGQGTTLTVSS VL: DIVLTQSPATLSVTPGDRVSLSCRASQRIYNYLHWYQQKSHESPRLLTKYASQSISGIPSRFSGSGSGTDFILTINSVETEDFGMYFCQQSNSWPLTFGAGTKLELRR , kindly confirm whether its OD492 is beneath 0.3 OD.
NOT MET

Regarding HCV 208B-1096 (antibody, V domains shown) VH: QVQLQQSGAGLAKPGASVKMSCKASGYTFTANKMHWAKQRPGQGLEWIGYIDPSSGYTEYNHKIQYKATLTADTSSSTAYMQLSTLTFEDSAVYYCTNFAYWGQGTLVTVSA VL: DIVMTQTPLTLSVTIGQPASISCKSSQSLLFTNGKTYLNWFLQRPGQSPKRLIYLLSKLDSGVPDRFSGSGSGTDFTLKISRVEAEDLGVYYCLQSTYFPLTFGAGTKLELKR , kindly confirm whether its OD492 is beneath 0.3 OD.
MET

Regarding HCV 208B-395 (antibody, V domains shown) VH: QVQLQQSGAGLAKPGASVKMSCKASGYTFTANKMHWTKQRPGQGLEWIGYIDPSSGYTQYNHKIQDKATLTADTSSSTAYMQLSSLTFEDSAVYYCTNFAYWGQGTLVTVSA VL: DIVLTQSPATLSVTPGDRVSLSCRASQRIYNYLHWYQQKSHESPRLLIKYASQSISGIPSRFSGSGSGTDFILTINSVETEDFGMYFCQQSNSWPLTFGAGTKLELRR , kindly confirm whether its OD492 is beneath 0.3 OD.
MET

Regarding HCV 208A-692 (antibody, V domains shown) VH: QGQMQQSGAELAKPGASVKLSCKTSGFTFSSSYISWLKQKPGQSLEWIAWIFAGTGNTNYNQKFTDKAQLTVDTSSSTAYMQLSSLTTEDSAIYYCAISGTGFTYWGQGTLVTVSA VL: EVLMTQSPLSLPVSLGDQASISCRSSQSLEHSNGNTYLEWFLQRPGQPPKLLIYKVSSRFSGVPDRFSGSGSGTDFTLKISRVEAEDLGVYYCFQGSHVPFTFGSGTKLAIKR , kindly confirm whether its OD492 is beneath 0.3 OD.
NOT MET

Regarding HCV 208B-612 (antibody, V domains shown) VH: EVQLQQSGPELVKPGASVKMSCKASGYRFTSYVMHWVRQKPGQGLEWIGYIDPHNDDTKYSEKFRGKATLTSDKSSTTAYMELSSLTSEDSAVYYCVRYSYDRDYSPMDYWGQGTSVTVSS VL: QIVLTQSPTLMSASPGEKVTMTCSASSTVTYIYWYQQKPGSSPRLWMYDTFNLVSGVPARFSGSRSGTSYFLTISSMEGEDAATYYCQQYSDSPYTFGGGTKLEIKR , kindly confirm whether its OD492 is beneath 0.3 OD.
MET

Regarding HCV 208A-741 (antibody, V domains shown) VH: QLQQSGPVLVKPGASVMISCKTSGYTFTENAMHWVKQSHGKSLEWIGGVNPNNGDTIFNQKFKGKATLTVDKSSSTAFMELRSLTSEESTVYYCVRRELDFFDYWGQGTSVTVSS VL: DIVLTQSPASLAVSLGQRTTISCGASQSVSTSRFSYMHWYQQKPGQPPKLLIKYASNLESGVPARFSGSGSGTDFTLNIHPVAEEDTAAYYCQHSWEFPFTFGSGTKLEIKR , kindly confirm whether its OD492 is beneath 0.3 OD.
MET

Regarding HCV 208A-557 (antibody, V domains shown) VH: QGQMQQSGAELVKPGASVKLSCKTSGFTFSSSYISWLKQKPGQSLEWIAWIYAGTGNTNYNQKFTDKAQLTVDTSSSTAYMQLSSLTTEDSAIYYCAISGTGFTYWGQGTLVTVSA VL: DIALTQSPASLAVSLGQRATISCRASQSVSTSRYSYMHWYQQKPGQPPELLIKYASNLESGVPARFSGSGSGTDFTLNIHPVGEEDTATYYCQHSWDFPFTFGSGTKLEIKR , kindly confirm whether its OD492 is beneath 0.3 OD.
MET
